experiment: MRT (0 to t) in Sprague-Dawley rat at 10 mg/kg, po by LC-MS/MS analysis; type: ADME, organism-based; conditions: in vivo
Readout name: log10 MRT last (log10 of the value in h)
Heads up: the numbers are on a log10 scale; they represent MRT last in h.

# Given smiles, log10 MRT last
records = [
    ("CC(=O)N1CCC(Nc2ccc3c(c2)C(=O)N(C[C@H](O)CN2CCc4ccccc4C2)CC32CCCC2)CC1", -1.00),
    ("CC(=O)N1CCC(Nc2ccc3c(c2)C(=O)N(C[C@H](O)CN2CCc4ccccc4C2)CC32CC2)CC1", 0.00),
    ("CC(=O)N1CCC(Nc2cc3c(cn2)C2(CC2)CN(C[C@H](O)CN2CCc4ccccc4C2)C3=O)CC1", -0.70),
    ("CC(=O)N1CCC(Nc2cc(C(=O)NC[C@H](O)CN3CCc4ccccc4C3)ncn2)CC1", 0.04),
    ("CC(=O)N1CC2(CC(Nc3cc4c(cn3)C3(CC3)CN(C[C@H](O)CN3CCc5ccccc5C3)C4=O)C2)C1", 0.23),
]

Turning now to a further compound:
# return recorded log10 MRT last for entry `CC(=O)N1CCC(Nc2ccc3c(c2)C(=O)N(C[C@H](O)CN2CCc4ccccc4C2)CC32CCC2)CC1`
0.34

----------
test system: A-427; experiment: Antiproliferative activity against human A-427 cells measured after 4 to 5 days by CCK-8 assay; type: functional, cell-based
Readout name: pIC50
Numbers only, as −log10 of the molar value.

# return recorded pIC50 for entry `CC(=O)N1CC2(CC(Nc3cc4c(cn3)C3(CC3)CN(C[C@H](O)CN3CCc5ccccc5C3)C4=O)C2)C1`
7.14

----------
experiment: Metabolic stability in mouse liver microsomes assessed as half-life at 1 uM measured upto 240 mins; type: ADME, Microsome
Readout name: half-life at 1 µM (min)
One number for each entry, in min.

# return recorded half-life at 1 µM for entry `CC(=O)N1CC2(CC(Nc3cc4c(cn3)C3(CC3)CN(C[C@H](O)CN3CCc5ccccc5C3)C4=O)C2)C1`
83.6

----------
assay: Clearance in Sprague-Dawley rat at 2 mg/kg, iv by LC-MS/MS analysis; format: ADME, organism-based; settings: in vivo
Readout name: clearance
A complete answer gives the number followed by the unit.

# Given smiles, Result
rows = [
    ("CC(=O)N1CC2(CC(Nc3cc4c(cn3)C3(CC3)CN(C[C@H](O)CN3CCc5ccccc5C3)C4=O)C2)C1", "41.7 mL/min/kg"),
]

Respectfully, I request clearance for each entry included below.
1. CC(=O)N1CCC(Nc2ccc3c(c2)C(=O)N(C[C@H](O)CN2CCc4ccccc4C2)CC32CC2)CC1
2. CC(=O)N1CCC(Nc2ccc3c(c2)C(=O)N(C[C@H](O)CN2CCc4ccccc4C2)CC32CCCC2)CC1
3. CC(=O)N1CCC(Nc2cc(C(=O)NC[C@H](O)CN3CCc4ccccc4C3)ncn2)CC1
4. CC(=O)N1CCC(Nc2ccc3c(c2)C(=O)N(C[C@H](O)CN2CCc4ccccc4C2)CC32CCC2)CC1

1. 71.7 mL/min/kg
2. 25 mL/min/kg
3. 56.7 mL/min/kg
4. 25 mL/min/kg

# return recorded clearance for entry `CC(=O)N1CCC(Nc2cc3c(cn2)C2(CC2)CN(C[C@H](O)CN2CCc4ccccc4C2)C3=O)CC1`
38.3 mL/min/kg
